Hey, just so you know, these numbers are from PubChem BioAssay (NCI).

Tested on: IGROV1 ovarian
Experiment Notes: NCI-60 one-dose screen, 48 h
Assay Conditions: 10 µM unless noted
About 83,000 compounds went through this panel and 20% of them were active in at least one assay; those are over-represented in the sample as a whole. Active and inactive are the calls of the source. How the source made its calls: active means growth percent below 10; inactive means the rest.
Choose one outcome from this list and give only that: Y for active, N for inactive

- Compound: "Cn1cc(-c2csc(-c3ccc(Cl)cc3)n2)c2cccnc21"
  Cat: "Y"
- Compound: "Fc1ccc(Nc2nc3nonc3nc2Nc2ccc(I)cc2)cc1"
  Cat: "N"

Could you now consider this next compound?
Q: Hi, sorry to bother you, what did the test record for "O=C(N/N=C/c1ccc(F)cc1)c1ccc(C(F)(F)F)nc1Nc1cccc(C(F)(F)F)c1" ?
Ans: Y

---

System: SK-MEL-2 melanoma
Experiment Notes: NCI-60 one-dose screen, 48 h (100 = growth as untreated, 0 = no growth, -100 = all killed)
Assay Conditions: 10 µM unless noted
The panel holds about 83,000 compounds, 20% with a hit somewhere; the sample as a whole holds those more often. Active and inactive are the calls of the source. How the source made its calls: active means growth percent below 10; inactive means the rest.
Quantity Name: growth

Worked examples follow.
- Molecule: "COc1cc(CNS(=O)(=O)c2ccc(C)cc2)ccc1OCc1cn(-c2ccc(Br)cc2)nn1"
  Quantity Name: "growth"
  Meas Value: "104% (inactive)"
- Molecule: "Oc1c(Cl)cc(Cl)cc1/C=N/Nc1nnc(N/N=C/c2cc(Cl)cc(Cl)c2O)c2ccccc12"
  Quantity Name: "growth"
  Meas Value: "51.2% (inactive)"
- Molecule: "O=C1/C(=C/c2ccccc2Br)COc2ccc(O)c(O)c21"
  Quantity Name: "growth"
  Meas Value: "48.8% (inactive)"
- Molecule: "COc1cc(CNC(=O)/C=C/C=C/c2ccc3c(c2)OCO3)ccc1OCc1cn(-c2ccc(C)c(C)c2)nn1"
  Quantity Name: "growth"
  Meas Value: "93.5% (inactive)"
- Molecule: "CCN1C(=O)N(CC)C2C1NN=c1s/c(=C\\c3ccc(Cl)cc3Cl)c(=O)n12 (stereo not given)"
  Quantity Name: "growth"
  Meas Value: "45.7% (inactive)"
- Molecule: "O=S(=O)(NCCCNc1nccc(-c2c(-c3ccc(F)c(O)c3)nc3occn23)n1)c1ccccc1"
  Quantity Name: "growth"
  Meas Value: "31.9% (inactive)"
- Molecule: "CCCCOC(=O)OCc1cc(=O)c(O)co1"
  Quantity Name: "growth"
  Meas Value: "109% (inactive)"
- Molecule: "O=C(Nc1ncc(Cc2ccc(Cl)c(C(F)(F)F)c2)s1)c1ccc2nnsc2c1"
  Quantity Name: "growth"
  Meas Value: "47.5% (inactive)"

Q: GET /values?readout=growth&item= "CCN(CC)c1ccc(/C=C/C(=O)c2ccc(Nc3nc(Nc4ccccc4)nc(Nc4ccccc4)n3)cc2)cc1"
Ans: 27.9% (inactive)

Q: GET /values?readout=growth&item= "N#Cc1c(NC(=O)c2ccccc2)sc2c1CCC(=O)C2"
Ans: 13.6% (inactive)

---

System: 786-0 renal
Experiment Notes: NCI-60 one-dose screen, 48 h
Assay Conditions: 10 µM unless noted
Compounds without any hit were thinned out: in the full panel of roughly 83,000, 20% have a hit. Activity calls are given as the source filed them. The calls were made as follows: active = growth percent below 10; inactive = the rest.
Choose one outcome from this list and give only that: label 1 = active, label 0 = inactive

# count of solved cases: 6
- Structure Smiles String: "C=CCn1cc(-c2nc3ccccc3s2)c2cc(-c3ccc4c5c(cccc35)C(=O)N(N)C4=O)ccc21"
  Cat: "label 0"
- Structure Smiles String: "CSc1nc2sc3c(c2c(=O)n1-c1ccc([N+](=O)[O-])cc1)CCCCC3"
  Cat: "label 0"
- Structure Smiles String: "Cc1nn(-c2ccccc2)c(Oc2ccccn2)c1-c1nc2ccccc2s1"
  Cat: "label 0"
- Structure Smiles String: "O=C(Nc1ncc(Cc2ccc(Cl)c(C(F)(F)F)c2)s1)c1ccc2nnsc2c1"
  Cat: "label 0"
- Structure Smiles String: "CCCCNC(=O)Oc1ccc(/C(=C(/CC)Cc2ccccc2)c2ccc(OCCN3CCCCCC3)cc2)cc1"
  Cat: "label 0"
- Structure Smiles String: "CN1C(=O)/C(=C/c2cn(-c3ccccc3)nc2-c2ccccc2)SC1=S"
  Cat: "label 0"

Could you now consider this next compound?
Q: Hi, sorry to bother you, what did the test record for "Cc1ccccc1NC(=O)c1sc2nc(C)c(C(=O)/C=C/c3ccccc3)cc2c1N" ?
Ans: label 1

---

System: COLO 205 colon
Experiment Notes: NCI-60 one-dose screen, 48 h (100 = growth as untreated, 0 = no growth, -100 = all killed)
Assay Conditions: 10 µM unless noted
Compounds without any hit were thinned out: in the full panel of roughly 83,000, 20% have a hit.
In this section we review reported growth values for a set of compounds.
Value expressed in %; do not type the unit.

Worked examples follow.
- Structure Smiles String: "CCOC(=O)C(=Cc1cccc(Br)c1)C(=O)OCC"
  Unit: "%"
  Meas Value: 46.6
- Structure Smiles String: "COc1ccccc1NC(=O)Cn1cc(CN2CCN(c3ccnc4cc(Cl)ccc34)CC2)nn1"
  Unit: "%"
  Meas Value: 101
- Structure Smiles String: "COc1cc(/C=C\\c2cc(/C=C\\c3ccc(O)c(OC)c3)n(C(=O)COc3ccc(Cl)cc3Cl)n2)ccc1O"
  Unit: "%"
  Meas Value: 82.4
- Structure Smiles String: "CCc1nc2c(=O)[nH]cnc2o1"
  Unit: "%"
  Meas Value: 110

Alright, here's another compound for you.
Q: GET /values?readout=growth&item= "N#Cc1c(-c2ccc(Cl)cc2)nc(SCC(=O)NC2=NN=C(c3ccccc3)CS2)[nH]c1=O"
Ans: 80.7

---

Test system: NCI-H460 lung
Experiment Notes: NCI-60 one-dose screen, 48 h
Assay Conditions: 10 µM unless noted
This is part of a sample that, as a whole, favours compounds with a hit. Of some 83,000 tested, about 20% had one in any assay. Active and inactive are the calls of the source. The calls were made as follows: active = growth percent below 10; inactive = the rest.
Choose one outcome from this list and give only that: Yes = active, No = inactive

- Compound: "CCN1CC(=O)N(/N=C2\\C(=O)Nc3ccccc32)C1=S"
  Cat: "No"
- Compound: "Cc1ccc(C(C(N)=O)C(C(N)=O)c2ccccc2)cc1 (stereo not drawn)"
  Cat: "No"
- Compound: "Nc1ncnc2c1N=C(c1ccc3c(c1)OCO3)CC(c1ccc([N+](=O)[O-])cc1)N2 (stereo not drawn)"
  Cat: "No"
- Compound: "O=C(Nc1cccc([N+](=O)[O-])c1)c1cc2ccccc2cc1O"
  Cat: "Yes"
- Compound: "COC(C(=O)[C@@H](O)[C@@H](C)O)[C@@H]1Cc2cc3cc(O[C@H]4C[C@@H](O[C@H]5C[C@@H](O)[C@H](O)C(C)O5)[C@H](O)C(C)O4)c(C)c(O)c3c(O)c2C(=O)[C@H]1O[C@H]1C[C@@H](O[C@H]2C[C@@H](O[C@H]3C[C@@H](O)[C@H](OC)C(C)O3)[C@@H](O)C(C)O2)[C@H](O)C(C)O1 (stereo partly drawn)"
  Cat: "Yes"

Q: Hi, sorry to bother you, what did the test record for "CN(CCn1sc(=O)n(Cc2ccccc2)c1=O)Cc1ccc2c(Cl)cc(Cl)c(O)c2n1" ?
Ans: No

Q: Hi, sorry to bother you, what did the test record for Nc1nc(=S)c2ncn(C3OC(COP(=O)(O)O)C(O)C3O)c2[nH]1 (stereo not drawn) ?
Ans: Yes

Q: Hi, sorry to bother you, what did the test record for "CCOC(=O)/C=C1\S/C(=N\Nc2cc(=O)[nH]c3ccc(Cl)cc23)N(c2ccccc2)C1=O" ?
Ans: No

---

System: ACHN renal
Experiment Notes: NCI-60 one-dose screen, 48 h (100 = growth as untreated, 0 = no growth, -100 = all killed)
Assay Conditions: 10 µM unless noted
This is part of a sample that, as a whole, favours compounds with a hit. Of some 83,000 tested, about 20% had one in any assay.
In this section we review reported growth values for a set of molecules.
Value expressed in %; do not type the unit.

Worked examples follow.
- Molecule: "Cc1ccc(-c2nc(N3CCNCC3)c3oc(-c4ccccc4)nc3n2)cc1"
  growth (%): -99.8
- Molecule: "CCCCN[C@H]1CC[C@@]2(C)[C@@H](CC[C@@]3(C)[C@H]2[C@H](O)C[C@H]2/C(=C(\\CCC=C(C)C)C(=O)OC)[C@@H](OC(C)=O)C[C@@]23C)[C@@H]1C"
  growth (%): 91.7
- Molecule: "CNC(=O)c1cc(Oc2ccc3nc(NC(C)=O)sc3c2)ccn1"
  growth (%): 104
- Molecule: "COc1cc(OC)c2sc(-c3ccc(-n4cncc4-c4ccc(OC)c(OC)c4)cc3)nc2c1"
  growth (%): 38.7
- Molecule: "Cn1cccc1C(=O)C1C(c2cccc([N+](=O)[O-])c2)C2C3CCCCC3CN2C12C(=O)Nc1ccc(Cl)cc12 (centres undefined)"
  growth (%): 59.9

Q: Form field - read-out: growth; system: ACHN renal; submitted item: "Cc1ccc(Sc2nnc(/N=C3\C(=O)Nc4ccccc43)s2)cc1"
Ans: 96.6

Q: Form field - read-out: growth; system: ACHN renal; submitted item: "CN(C)CCCn1c2c(c3ncccc3c1=O)C(=O)c1ccccc1-2"
Ans: 15.2

Q: Form field - read-out: growth; system: ACHN renal; submitted item: "C[C@]12CC[C@@H]3c4ccc(O)c([N+](=O)[O-])c4CC[C@H]3[C@@H]1CCC2=O"
Ans: 94.1

Q: Form field - read-out: growth; system: ACHN renal; submitted item: "COc1cccc(/C=C/C(=O)c2cc3c(N)c(C(=O)Nc4ccccc4)sc3nc2C)c1"
Ans: 33.5
